Biological target: UniProtKB O00329
Assay: TR-FRET enzymatic activity assay against PI3K isoforms
Settings: 2×Km ATP, 30 minutes at 25° C.
Measured Quantity: IC50 (nM)

C[C@H](Nc1ncnc(N)c1C#N)c1nc2cccc(Cl)c2c(=O)n1CCCN(C)C
6
C[C@H](Nc1nc(N)nc(N)c1C#N)c1nc2c(Cl)cc(F)cc2c(=O)n1[C@H]1C[C@H](O)C1
20

(P) Cc1ncnc(N[C@@H](C)c2nc3cccc(Cl)c3c(=O)n2CCCN)c1C#N
(Q) NCCCn1c([C@@H](Nc2ncnc3cccnc23)C2CC2)nc2cccc(Cl)c2c1=O
Sort P and Q by IC50 descending and give the first. State your choice using its label.
P

(I) C[C@H](Nc1ncnc(N)c1C#N)c1nc2cccc(Cl)c2c(=O)n1N(C)CCN [Compound 16]
(II) C[C@H](Nc1ncnc(N)c1Cl)c1nc2cccc(Cl)c2c(=O)n1CCCN
(III) C[C@H](Nc1nc(N)nc(N)c1C#N)c1nc2cccc(Cl)c2c(=O)n1CCCC#N
(IV) C[C@H](Nc1nc(N)nc(N)c1C#N)c1nc2cccc(Cl)c2c(=O)n1CC1CCCNC1 (stereo in doubt) [Compound 124]
Order the items by recorded IC50; the first position goes to the largest value. To answer, write out the labels according to the requested order.
II, I, III, IV
(II: 11 nM, I: 7 nM, III: 4 nM, IV: 2 nM)

(P) CNCCCn1c([C@H](C)Nc2ncnc(N)c2C#N)nc2cccc(Cl)c2c1=O
(Q) C[C@H](Nc1nc(N)nc(N)c1C#N)c1nc2c(Cl)ccc(Cl)c2c(=O)n1[C@H]1C[C@H](O)C1
(R) C[C@H](Nc1nc(N)nc(N)c1C#N)c1nc2cccc(Cl)c2c(=O)n1CCCN(C)CC(F)(F)F
(S) CS(=O)(=O)CCCn1c([C@@H](Nc2nc(N)nc(N)c2C#N)C2CC2)nc2cccc(Cl)c2c1=O
Sort the compounds on IC50; start with the lowest figure. To answer, write out the labels according to the requested order.
S, R, P, Q
(S: 2 nM, R: 4 nM, P: 6 nM, Q: 12 nM)

(P) CC(CCN)n1c([C@H](C)Nc2ncnc(N)c2C#N)nc2cccc(Cl)c2c1=O (stereo partly shown)
(Q) CNCCCn1c([C@H](C)Nc2nc(N)nc(N)c2C#N)nc2cccc(Cl)c2c1=O
(R) COCCCn1c([C@H](C)Nc2ncnc(N)c2C#N)nc2cccc(Cl)c2c1=O
(S) C[C@H](NC(=O)c1nc(Br)c(N)nc1N)c1nc2cccc(Cl)c2c(=O)n1CCCN
Sort the compounds on IC50; start with the lowest figure. To answer, write out the labels according to the requested order.
Q, P, R, S
(Q: 3 nM, P: 6 nM, R: 9 nM, S: 71 nM)

----------
Biological target: PI3Kδ (Homo sapiens (Human), UniProt O00329)
Sequence (O00329 whole entry, canonical isoform): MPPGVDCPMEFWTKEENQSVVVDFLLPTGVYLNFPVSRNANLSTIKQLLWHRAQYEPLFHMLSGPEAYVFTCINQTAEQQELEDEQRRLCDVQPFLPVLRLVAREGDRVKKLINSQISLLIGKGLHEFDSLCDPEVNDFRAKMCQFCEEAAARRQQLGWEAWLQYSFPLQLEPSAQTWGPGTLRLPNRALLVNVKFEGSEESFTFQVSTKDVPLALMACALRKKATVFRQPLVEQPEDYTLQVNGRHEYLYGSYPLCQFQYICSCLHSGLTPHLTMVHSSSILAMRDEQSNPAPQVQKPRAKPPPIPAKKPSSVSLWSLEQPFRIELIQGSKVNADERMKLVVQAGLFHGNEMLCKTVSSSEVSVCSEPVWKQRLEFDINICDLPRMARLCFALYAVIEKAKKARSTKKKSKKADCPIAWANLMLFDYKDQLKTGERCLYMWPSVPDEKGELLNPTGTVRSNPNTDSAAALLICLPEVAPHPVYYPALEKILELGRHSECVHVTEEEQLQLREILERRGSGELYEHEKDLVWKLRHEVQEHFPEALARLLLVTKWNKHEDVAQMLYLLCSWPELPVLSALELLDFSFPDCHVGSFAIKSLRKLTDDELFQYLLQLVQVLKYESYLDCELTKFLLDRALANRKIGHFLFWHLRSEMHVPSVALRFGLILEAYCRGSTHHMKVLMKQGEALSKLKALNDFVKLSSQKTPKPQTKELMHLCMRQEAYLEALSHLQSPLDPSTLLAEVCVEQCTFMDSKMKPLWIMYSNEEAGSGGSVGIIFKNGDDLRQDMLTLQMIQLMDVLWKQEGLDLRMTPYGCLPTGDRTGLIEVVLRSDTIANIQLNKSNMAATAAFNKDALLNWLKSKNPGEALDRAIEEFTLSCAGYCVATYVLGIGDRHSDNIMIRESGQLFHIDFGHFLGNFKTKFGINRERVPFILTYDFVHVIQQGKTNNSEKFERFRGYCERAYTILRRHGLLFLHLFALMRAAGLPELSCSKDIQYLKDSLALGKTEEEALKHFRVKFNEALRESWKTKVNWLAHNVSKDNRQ
Sequence (P27986 whole entry partner, canonical isoform): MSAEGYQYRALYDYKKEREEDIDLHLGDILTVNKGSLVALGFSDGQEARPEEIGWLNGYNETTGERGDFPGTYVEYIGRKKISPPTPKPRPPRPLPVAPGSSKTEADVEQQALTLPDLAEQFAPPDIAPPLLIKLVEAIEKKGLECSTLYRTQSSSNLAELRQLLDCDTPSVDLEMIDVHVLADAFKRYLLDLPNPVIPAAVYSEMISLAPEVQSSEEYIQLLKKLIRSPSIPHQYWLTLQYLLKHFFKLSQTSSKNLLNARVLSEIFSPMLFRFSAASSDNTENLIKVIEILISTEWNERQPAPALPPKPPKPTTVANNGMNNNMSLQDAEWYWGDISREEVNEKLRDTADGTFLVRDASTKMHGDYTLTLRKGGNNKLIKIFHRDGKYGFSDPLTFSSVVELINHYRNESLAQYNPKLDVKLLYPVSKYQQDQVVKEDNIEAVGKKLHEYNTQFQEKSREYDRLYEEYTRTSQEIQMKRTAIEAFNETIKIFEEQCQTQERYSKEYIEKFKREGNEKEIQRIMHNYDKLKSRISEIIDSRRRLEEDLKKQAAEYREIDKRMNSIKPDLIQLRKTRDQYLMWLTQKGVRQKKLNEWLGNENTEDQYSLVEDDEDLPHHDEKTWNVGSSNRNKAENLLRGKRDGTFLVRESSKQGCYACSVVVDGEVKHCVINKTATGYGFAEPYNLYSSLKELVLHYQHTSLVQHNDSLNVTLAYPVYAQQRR
Experiment: TR-FRET enzymatic activity assay against PI3K isoforms
Assay type: biochemical
Conditions: 2×Km ATP, 30 minutes at 25° C.
Measured Quantity: IC50 (nM)

Recorded IC50, per entry:
NCCCn1c([C@@H](Nc2ncnc3ccc(Cl)nc23)C2CC2)nc2cccc(Cl)c2c1=O
4
C[C@H](Nc1nc(N)nc(N)c1C#N)c1nc2cccc(Cl)c2c(=O)n1CCCN
2
COCC(COC)n1c([C@H](C)Nc2nc(N)nc(N)c2C#N)nc2cccc(Cl)c2c1=O
13
CNCCCn1c([C@H](C)Nc2nc(N)nc(C)c2C#N)nc2cccc(Cl)c2c1=O
3
N#Cc1c(N)nc(N)nc1N[C@H](c1nc2c(Cl)ccc(Cl)c2c(=O)n1[C@H]1C[C@@H](O)C1)C1CC1
2

(a) N#Cc1c(N)nc(N)nc1N[C@H](c1nc2cccc(Cl)c2c(=O)n1CCCC(N)=O)C1CC1
(b) N#Cc1c(N)nc(N)nc1N[C@H](c1nc2c(Cl)cc(F)cc2c(=O)n1[C@H]1C[C@H](O)C1)C1CC1
Sort a and b by IC50 descending and give the first. State your choice using its label.
b
(b: 8 nM, a: 1 nM)

(P) N#Cc1c(Cl)nc(N)nc1N[C@H](c1nc2cccc(Cl)c2c(=O)n1CCCN)C1CC1
(Q) COCCCn1c([C@H](C)Nc2nc(N)nc(N)c2C#N)nc2c(Cl)ccc(Cl)c2c1=O
Compare P and Q and name the one whose reported IC50 is smaller. State your choice using its label.
Q
(Q: 3 nM, P: 11 nM)

(A) N#Cc1c(N)nc(N)nc1N[C@H](c1nc2c(Cl)ccc(Cl)c2c(=O)n1CCCC(N)=O)C1CC1
(B) N#Cc1c(N)nc(N)nc1N[C@H](c1nc2cccc(Cl)c2c(=O)n1CCCNC1COC1)C1CC1
Compare A and B and name the one whose reported IC50 is smaller. State your choice using its label.
B
(B: 0.5 nM, A: 1 nM)
